experimental-system: T1, his-tagged murine TIGIT (Acro Biosystems #TIT-M52E6) (murine, UniProt P86176 29-148, limits assumed)
T1 construct: Bought protein; also called mouse his-tagged TIGIT; not shown: his tag
T1 sequence (looked up): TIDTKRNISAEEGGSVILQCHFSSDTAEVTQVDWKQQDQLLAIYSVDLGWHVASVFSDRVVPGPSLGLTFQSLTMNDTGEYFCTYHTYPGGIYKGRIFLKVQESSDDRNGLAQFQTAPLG
method-notes: SPR (Carterra LSA), scFv-Fc captured, His-TIGIT analyte; repeat
readout-label: pKd
Scale: negative log10 of molar concentration, which is what pKd denotes.

*Q* Report pKd for 43352p1.H8 (scFv, V domains shown) VH: DVQLVESGGGVVRPGESLRLSCAASGFNFSTYAMNWVRQAPGEGLEWVSGISGRSSGDTTYYADSVRGWFTVSRDNSKNTLYLQMSSLRAEDTAVYYCARETWIRGYFDYWGLGTLVTVSS VL: QSVLTQPPSASGTPGQRVTISCSGSRSNLGNNLVYWYQQLPGTAPKLLIYFNNERPSGVPDRFSGSKSGTSASLAISGVQSEDEADYYCATWDDSLNGWVFGGGTKLTVL
*A* 9.13

*Q* Report pKd for 43645p1.F11 (scFv, V domains shown) VH: EVQLLESGGGLVQPGGSLRLSCAASGFTFSSYWMSWVRQAPGKGLEWVSGIHISDSTYYADSVKGRFTISRDNSKNTLYLQMNSLRAEDTAVYYCAKGHTVLQYGMDVWGQGTTVTVSS VL: QSGLTQPPSASGTPGQRVTISCSGDISNTRNNYVSWYQQLPGTAPKLLIYRNSQRPSGVPDRFSGSKSATSASLAISGLQSEDEADYYCGTWDNTLNAWVFGGGTKLTVL
*A* 7.04

*Q* Report pKd for 43586p1.2.C11 (scFv, V domains shown) VH: EVQLLESGGGLVQPGGSLRLSCAASGFTFDDYVMSWVRQAPGKGLEWVSLINWNGDKTYCADSVKGRFTISRDNSKNTLYLQMNSLRAEDTAIYYCAKHWIVFQYGMDVWGQGTTVTVSS VL: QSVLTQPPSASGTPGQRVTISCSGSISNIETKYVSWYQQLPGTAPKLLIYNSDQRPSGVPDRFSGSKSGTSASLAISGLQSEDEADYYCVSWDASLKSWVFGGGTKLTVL
*A* 8.74

*Q* Report pKd for 43586p2.G10 (scFv, V domains shown) VH: EVQLLESGGGLVQPGGSLRLSCAASGFTFDDYVMSWVRQAPGKGLEWVSLINWSGGTTYYADSVKGRFTISRDNSKNTLYLQMNSLRAEDTAVYYCAKHWIVYQYGMDVWGQGTTVTVSS VL: QSVLTQPSSASGTPGQRVTISCSGTISNIETKYVSWYKYVSWYQQLPGTAPKLLIYNNVQRPSGVPDRFSGSQSGTSASLAISGLQSEDEAHYYCASWEGGLNSWVFGGGTKLTVL
*A* 9.04

*Q* Report pKd for 43645p1.D3 (scFv, V domains shown) VH: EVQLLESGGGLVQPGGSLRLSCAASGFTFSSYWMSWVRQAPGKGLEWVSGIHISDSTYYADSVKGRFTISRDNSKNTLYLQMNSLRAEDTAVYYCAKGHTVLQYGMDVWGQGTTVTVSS VL: QSGLTQPPSASGTPGQRVTISCSGDISNTRNNYVSWYQQLPGTAPKLLIYGNHQRPSGVPDRFSGSKSATSASLAISGLQSEDEADYYCGTWDNTLNAWVFGGGTKLTVL
*A* 7.72

*Q* Report pKd for 43586p2.D11 (scFv, V domains shown) VH: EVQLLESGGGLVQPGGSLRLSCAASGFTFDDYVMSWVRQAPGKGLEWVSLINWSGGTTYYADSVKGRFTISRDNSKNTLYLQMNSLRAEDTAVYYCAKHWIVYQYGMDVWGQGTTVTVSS VL: QSVLTQPSSASGTPGQRVAISCSGTISNIETKYVSWYKYVSWYQQLPGTAPKLLIYNNVQRPSGVPDRFSGSQSGTSASLAISGLQSEDEAHYYCASWEGGLNSWVFGGGTKLTVL
*A* 9.13

*Q* Report pKd for 43586p1.2.E2 (scFv, V domains shown) VH: EVQLLESGGGLVQPGGSLRLSCAASGFTFTSYLMSWVRQAPGKGLEWVSTITWDGDRTYYADSVKGRFTISRDNSKNTLYLQMNSLRVGDTAVYYCAKHWTVFQYGMDVWGQGTTVTVSS VL: QSVLTQPASASGTPGQRVTISCSGTISNIETKYVSWYQQLPGTAPKLLIYGNHQRPSGVPDRFSGSKSGTSASLAISGLQSEDEADYYCASWENDLKSWVFGGGTKLTVL
*A* 7.17
